# Potency values compiled below
# target_desc: Glucocorticoid receptor (Homo sapiens)
# procedure_text: GR-GFP Redistribution (AID 450); further: potency means the concentration at half of the fitted maximal effect
# experimental_setup: U2OS GR-GFP nuclear translocation, laser cytometry, 2 h
Active and inactive are the calls of the source.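 How the source made its calls: active means compounds whose dose series gives a full or clear partial fitted curve of increased nuclear translocation; inconclusive means weak partial curve or effect only at the top dose; inactive means no dose-dependent translocation response.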

# count of solved cases: 2
{"columns": ["line_notation", "Potency"],
 "data": [
  ["C[C@]12C=CC(=O)C=C1CC[C@H]1[C@@H]3C[C@@H](O)[C@](O)(C(=O)CO)[C@@]3(C)C[C@H](O)[C@@]12F", "0.148 µM (active)"],
  ["CN(C)[C@@H]1C(=O)C(C(N)=O)=C(O)[C@@]2(O)C(=O)C3=C(O)c4c(O)ccc(Cl)c4[C@@H](O)[C@H]3C[C@@H]12", "> 20.6 µM (inactive)"]
]}

Quick one: Potency of "COc1cc2c(cc1OC)-c1cc(=Nc3c(C)cc(C)cc3C)n(C)c(=O)n1CC2" ?
> 46 µM (inactive)

Please report the recorded Potency for "O=C(CCCN1CCC(O)(c2cccc(C(F)(F)F)c2)CC1)c1ccc(F)cc1" .
> 46 µM (inactive)

Which measured Potency value corresponds to "N[C@@H](COP(=O)(O)O)C(=O)O" ?
> 46 µM (inactive)

====

# System: GB4
# procedure_text: qHTS profiling for inhibitors of Plasmodium falciparum proliferation (AID 504749); further: nearly all actives have a fitted effect of over 60% in size
# experimental_setup: P. falciparum in erythrocytes, SYBR Green DNA, 72 h; series mostly up to 28.7 µM
Records with an inconclusive call do not appear. Active and inactive are the calls of the source. Calls come from the whole dose curve; as a rule, active = well fitted inhibition curve with a large enough effect; inconclusive = small, poorly fitted or top-dose-only effect; inactive = flat fitted curve, though single readings scatter.
One label from this list, please: active, inactive

{"columns": ["molecule", "classification"],
 "data": [
  ["Cc1ccc(S(=O)(=O)NC(=O)NN2CCCCCC2)cc1", "inactive"],
  ["COC(=O)[C@H]1[C@H]2C[C@@H]3c4[nH]c5cc(OC)ccc5c4CCN3C[C@H]2C[C@@H](OC(=O)c2cc(OC)c(OC)c(OC)c2)[C@@H]1OC", "active"],
  ["CN(C(=O)CCCOc1ccc2[nH]c(=O)ccc2c1)C1CCCCC1", "inactive"],
  ["CN(C)C(=O)Oc1ccc[n+](C)c1", "inactive"],
  ["C[N+](C)(C)CCOC(N)=O", "inactive"]
]}

Recorded call for "CN(C)CCN(Cc1cccs1)c1ccccn1" ?
active

For "Cc1ccc(=O)n(-c2ccccc2)c1" , which call appears in the assay record?
inactive

Check the results log: what was the call for NS(=O)(=O)c1cc2c(cc1Cl)NC(C1CC3C=CC1C3)NS2(=O)=O (centres undefined) ?
inactive

// outcome(item) with item = "CCCCNc1ccc(C(=O)OCCN(C)C)cc1"
inactive

# fetch the recorded call for "O=C(O)CN(CCOCCOCCN(CC(=O)O)CC(=O)O)CC(=O)O" here
inactive

State the result this test recorded for "CCCCOCCOCCOCc1cc2c(cc1CCC)OCO2" .
inactive

Any idea what this test logged for "Nc1ncn([C@@H]2O[C@H](CO)[C@@H](O)[C@H]2O)c(=O)n1" ?
inactive

Per the records of this test, what outcome belongs to "CCN(CC)CCCN(c1ccccc1)C1Cc2ccccc2C1" ?
active

====

# Tested on: ATS189
# procedure_text: qHTS profiling for inhibitors of Plasmodium falciparum proliferation (AID 504749); further: nearly all actives have a fitted effect of over 60% in size
# experimental_setup: P. falciparum in erythrocytes, SYBR Green DNA, 72 h; series mostly up to 28.7 µM
Inconclusive results are not listed. Calls of active or inactive are those of the source. The call rests on the fitted dose curve; in most records, active means well fitted inhibition curve with a large enough effect; inconclusive means small, poorly fitted or top-dose-only effect; inactive means flat fitted curve, though single readings scatter.
Mark one answer only. Choices: Y for active, N for inactive

Here's what some known entries look like.
{"columns": ["compound", "classification"],
 "data": [
  ["CCCCOCCOCCOCc1cc2c(cc1CCC)OCO2", "N"],
  ["CCCCCN(CCCCC)C(=O)C(CCC(=O)O)NC(=O)c1ccc(Cl)c(Cl)c1 (stereo unspecified)", "N"],
  ["C[N+](C)(C)CCOC(N)=O", "N"]
]}

Fill in: this test's call for "Cc1ccc(S(=O)(=O)NC(=O)NN2CCCCCC2)cc1" is ___
N

# lookup: test call for "CCN(CC)CCNC(=O)c1cc(S(C)(=O)=O)ccc1OC"
N

Which outcome did this test record for the compound NS(=O)(=O)c1cc2c(cc1Cl)NC(C1CC3C=CC1C3)NS2(=O)=O (stereo unspecified) ?
N

For "COc1cc2c(cc1OC)-c1cc(=Nc3c(C)cc(C)cc3C)n(C)c(=O)n1CC2" , which call appears in the assay record?
Y

In this assay, the call recorded for "COC(=O)[C@H]1[C@H]2C[C@@H]3c4[nH]c5cc(OC)ccc5c4CCN3C[C@H]2C[C@@H](OC(=O)c2cc(OC)c(OC)c(OC)c2)[C@@H]1OC" was what?
Y

Could you check what this test reported for "NC(=Nc1ccccc1)Nc1ccccc1" ?
N

// outcome(item) with item = "O=C(O)CN(CCOCCOCCN(CC(=O)O)CC(=O)O)CC(=O)O"
N

Kindly provide the recorded test outcome for the following compound: "CCN(CC)CCOCCOC(=O)C1(c2ccccc2)CCCC1"
Y
